- tested system: T1, recombinant human VEGF110 (human, UniProt P15692-4 27-136, limits assumed)
- T1 construct: Made in house; also called hVEGF110
- T1 sequence (looked up): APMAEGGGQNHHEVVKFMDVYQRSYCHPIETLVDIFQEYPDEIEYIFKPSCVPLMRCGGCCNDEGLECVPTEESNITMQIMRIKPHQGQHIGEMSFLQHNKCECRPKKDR
- run description: Biacore SPR, VEGF immobilized, pH 5
property: kon (M⁻¹ s⁻¹)
Give your result in M⁻¹ s⁻¹ as a bare value.

Ask: What does the record list as kon for 578-min (scFv, also called EP578 min; Protein Nr; 820) scFv: EIVMTQSPSTLSASVGDRVIITCQASEIIHSWLAWYQQKPGKAPKLLIYLASTLASGVPSRFSGSGSGAEFTLTISSLQPDDFATYYCQNVYLASTNGANFGQGTKLTVLGGGGGSGGGGSGGGGSGGGGSEVQLVESGGGLVQPGGSLRLSCAASGFSLTDYYYMTWVRQAPGKGLEWVSFIDPDDDPYYATWAKGRFTISRDNSKNTLYLQMNSLRAEDTAVYYCAKGDHNSGWGLDIWGQGTLVTVSS ?
Reply: 915000
